# credit: the supplement of paper PMC10567573

B1: NCF4 (parent)
chain: FVKILKDFPEEDDPTNWLRCYYYE

variants of: B1; test: protein stability index of a GFP-peptide fusion (GPS, HEK-293T) (PSI 1-6); higher = more stable; conditions: c terminus: a fixed tail appended;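 also: lentivirally expressed fusions sorted by FACS into six bins by GFP to DsRed ratio, PSI derived from sequencing read proportions per bin multiplied by bin number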
# if value of protein stability index reaches 2, tag fulfilled; if it stays below, tag not fulfilled

- chain: "FVKILKDFPEEDDPTNWLCCYYYE"
  class_label: "not fulfilled"

Task item: Check the entry "FVKILKCFPEEDDPTNWLRCYYYE" : does protein stability index equal or exceed 2?
Reply: fulfilled

Task item: Item "FVKGLKDFPEEDDPTNWLRCYYYE" with protein stability index of 2 or above?
Reply: not fulfilled

Task item: State whether the measured protein stability index reaches 2, counting equality as reaching it, for "FVKILKDFPIEDDPTNWLRCYYYE"
Reply: fulfilled

Task item: Please tell me: is the variant "FVKILKDFPEEDDPTNWLRCYYEE" at or over 2 in terms of protein stability index?
Reply: fulfilled

Task item: Given the entry "FVKILKDFPEEDDPTNWLRCHYYE" , answer whether its protein stability index meets or surpasses 2.
Reply: fulfilled

Task item: For this variant, is measured protein stability index 2 or higher? "FVKILKDFPEEDDPTNWLRCYYYC"
Reply: fulfilled

Task item: Could you tell me if the measured protein stability index of "FVKILKDYPEEDDPTNWLRCYYYE" reaches 2 or more?
Reply: fulfilled

Task item: Reported protein stability index reaches at least 2 for "FVKILKDFPEEDDPTNYLRCYYYE" ?
Reply: fulfilled

Task item: Hello, I need to know if "FKKILKDFPEEDDPTNWLRCYYYE" has measured protein stability index not below 2. Thanks!
Reply: fulfilled

Task item: State whether the measured protein stability index reaches 2, counting equality as reaching it, for "FVKILKDFPEEDDPTNWLRCYYYI"
Reply: fulfilled

Task item: Does the variant "FVKILSDFPEEDDPTNWLRCYYYE" have recorded protein stability index that is 2 or more?
Reply: fulfilled
